method-summary: small-molecule microarray binders of probe aNog, primary screen, biochemical, biotinylated probe, 635/667 nm fluorescence (AID 1115);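 also: probe is biotinylated aNog protein used at 0.15 µg/mL for 1 h at 4 C; z-score combines 667 nm fluorescence of each spot with its signal to noise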
measurement-setup: higher = more signal
Binary call on composite z-score: met from -0.1 upward, not met beneath that.

1) CN(C)CCCCNC(=O)[C@H]1C[C@H]2C(=O)NCC(=O)N2[C@H]1c1cccc(OCCO)c1 | not met
2) C#CCN(C/C=C/c1ccccc1)[C@H](CO[Si](C)(C)C(C)(C)C)c1ccccc1 | not met
3) CC1CC/C=C\[C@H]2OC34C=CCN(c5ccc(Cl)cc5)C(=O)[C@H]3N(CCCO)C(=O)[C@]4(C)C2C(=O)O1 (stereo partly drawn) | met
4) CC(C)=CCN(C(=O)C#Cc1ccccc1)[C@H](CO)c1ccccc1 | not met
5) Cc1ccc(S[C@]2(C(=O)NCC(F)(F)F)CC(=O)N(C3CCCCC3)[C@@H]2c2ccc(CO)cc2)cc1 | not met
6) C[C@@H](OCc1ccccc1)C1NC(=O)[C@@]23C(=O)N[C@@H](Cc4ccccc4)C2[C@H](C)[C@@]2(C)O[C@H]2C3/C=C/C/C=C\CNC(=O)[C@H](Cc2ccccc2)NC1=O (stereo partly drawn) | not met
7) CC(C)C[C@@H]1NC(=O)[C@H]2C[C@@H](C(=O)NCCCCCNC(=O)CS)[C@@H](c3ccc(O)cc3)N2C1=O | not met
8) COCCCNC(=O)[C@@H]1c2ccccc2C(=O)N(C2CCCCC2)[C@H]1c1ccc(CO)cc1 | met
9) CCCCCCc1nc(-c2ccc(OC)nc2)cc2c1[Si](C(C)C)(C(C)C)OC2 | met
10) C=CCC(OC(C)=O)[C@@H]1[C@@H](N(Cc2cccc3ccccc23)C(=O)c2cccc3ccccc23)c2cc(OCCCO)ccc2N1C(=O)Cc1ccc2ccccc2c1 (stereo partly drawn) | met
11) C=C(COC)/C(=C/C[C@H](OC(=O)c1ccncc1)c1cccc(OCCO)c1)c1cnc2ccccc2c1 | not met
12) COc1ccccc1CN1C(=O)c2ccccc2[C@@H](C(=O)NCCCN(C)C)[C@@H]1c1ccc(CO)cc1 | not met
13) CN(C)CCCC[C@@H]1NC(=O)[C@H]2C[C@@H](C(=O)O)[C@@H](c3cccc(OCCO)c3)N2C1=O | met
14) COCCOC(=O)N1C(=O)[C@@]2(c3cc(C#Cc4ccc(OC)cc4)ccc31)[C@H](c1ccc(OCCO)cc1)N1[C@H](c3ccccc3)[C@H](c3ccccc3)OC(=O)[C@H]1[C@@H]2C(=O)N1CCCCCCC1 | met
15) COc1ccc([Si](C)(C)[C@H]2[C@H](CCO)O[C@@]3(C(=O)N(Cc4ccccc4)c4ccc(N(C=O)c5ccccc5)cc43)[C@@H]2C)cc1 | not met
16) CCCC[C@H]1OB(O)C[C@H]2C1=C(C)C[C@H]1C(=O)C=CC(=O)[C@H]12 | not met
17) CC(=O)NCCCC[C@@H]1NC(=O)[C@@H]2C[C@H](C(=O)NCCCCCC[N+](C)(C)C)[C@H](c3ccc(O)cc3)N2C1=O | not met
18) Cc1ccc(S[C@]2(C(=O)NC3CC3)CC(=O)N(Cc3cc(C(F)(F)F)cc(C(F)(F)F)c3)[C@@H]2c2ccc(CO)cc2I)cc1 | met
19) C=CCC(OC(C)=O)[C@@H]1[C@@H](N(Cc2ccc(-c3cccc(C(F)(F)F)c3)o2)C(=O)c2cccc3ccccc23)c2cc(OCCCO)ccc2N1C(=O)c1ccc2ccccc2n1 (stereo partly drawn) | met
20) COc1ccc(NN2C(C(O)c3cc(C(F)(F)F)cc(C(F)(F)F)c3)C=CC3C(=O)N(C4CCCCC4)C(=O)C32)cc1 (stereo not drawn) | met
21) COCCOC(=O)N1C(=O)[C@@]2(c3cc(C#CC4(O)CCCCCC4)ccc31)[C@H](c1ccccc1OCCO)N1[C@H](c3ccccc3)[C@H](c3ccccc3)OC(=O)[C@H]1[C@@H]2C(=O)N1CCCCCCC1 | met
22) C[C@H]1NC(=O)C([C@@H](C)OCc2ccccc2)NC(=O)[C@@]23C(=O)N[C@@H](Cc4ccccc4)C2[C@H](C)[C@@]2(C)O[C@H]2C3/C=C/C/C=C\CNC1=O (stereo partly drawn) | met
23) COCCOC(=O)N1C(=O)[C@@]2(c3cc(C#Cc4ccc(OC)cc4)ccc31)[C@H](C(=O)N1CCCCCCC1)[C@H]1C(=O)O[C@H](c3ccccc3)[C@H](c3ccccc3)N1[C@@H]2c1ccccc1OCCO | met
24) CC(C)C[C@@H]1NC(=O)C([C@@H](C)OCc2ccccc2)NC(=O)[C@@]23C(=O)N[C@@H](Cc4ccccc4)C2[C@H](C)[C@@]2(C)O[C@H]2C3/C=C/CC/C=C/CNC1=O (stereo partly drawn) | not met
25) C=C(CCCC)/C(=C/C[C@H](OC(C)=O)c1cccc(OCCO)c1)c1cc(C(=O)OC)ccc1OC | met
26) [N-]=[N+]=NCc1ccccc1C[C@]1(C(=O)N2CCCCC2)N=C(c2ccc(OCCCO)cc2)O[C@H]1c1ccccc1 | met
27) C=CC[C@]1(C(=O)N(C)C)COC(c2ccc(OCCCO)cc2)=N1 | not met
28) COCCOC(=O)N1C(=O)[C@@]2(c3cc(C#CCC(C(=O)OC)C(=O)OC)ccc31)[C@H](c1ccc(OCCO)cc1)N1[C@H](c3ccccc3)[C@H](c3ccccc3)OC(=O)[C@H]1[C@@H]2C(=O)N1CCCCCCC1 | met
